# Tested on: Human alphaherpesvirus 3
# assayInfo: Antiviral activity against thymidine kinase deficient Varicella zoster virus 07/1 infected in human HEL cells assessed as inhibition of virus-induced cytopathicity after 5 days
# Assay type: functional, organism-based
# conditionNotes: Human alphaherpesvirus 3, 07/1, HEL, 120 h
pEC50: −log10 of the molar value.
reportedMetric: pEC50

*Q* Could you share which pEC50 value was measured for Nc1nc2c(ncn2COC(CO)CO)c(=O)[nH]1 [GANCICLOVIR] ?
*A* 5.60

*Q* Could you share which pEC50 value was measured for O=c1[nH]c(=O)n([C@H]2C[C@H](O)[C@@H](CO)O2)cc1/C=C/Br [BRIVUDINE] ?
*A* 3.80

A = O=c1c2ncn(CC3(CO)CC3CO)c2nc2[nH]c(-c3cccs3)cn12 (centres undefined)
B = Nc1nc(O)c2ncn(CC3(CO)CC3CO)c2n1 (centres undefined)
*Q* Just curious, which one has the larger pEC50 reading, A or B ? Pick one and reply with its label.
*A* B

---

Listed molecules paired with reported MCC at 72 h
# assayInfo: Cytotoxicity against human HEL cells assessed as microscopically detectable morphological alterations after 3 days
# Format: cell-based

*Q* Could you share which MCC at 72 h value was measured for O=c1c2ncn(CC3(CO)CC3CO)c2nc2[nH]c(-c3ccco3)cn12 (cis isomer) ?
*A* > 100 µM

---

# System: Human alphaherpesvirus 3
# assayInfo: Antiviral activity against Varicella zoster virus OKA infected in human HEL cells assessed as inhibition of virus-induced cytopathicity after 5 days
# Assay type: functional, organism-based
# conditionNotes: Human alphaherpesvirus 3, OKA, 120 h
pEC50: −log10 of the molar value.
reportedMetric: pEC50

Example molecules with recorded pEC50:
*Q* Could you share which pEC50 value was measured for O=c1c2ncn(COCCO)c2nc2[nH]c(-c3cccs3)cn12 ?
*A* 5.24

*Q* Could you share which pEC50 value was measured for O=c1c2ncn(CC3(CO)CC3CO)c2nc2[nH]c(-c3cccs3)cn12 (stereo not drawn) ?
*A* 6.49

*Q* Could you share which pEC50 value was measured for O=c1c2ncn(CC3(CO)CC3CO)c2nc2[nH]c(-c3ccc(Br)s3)cn12 (stereo not drawn) ?
*A* 6.03

*Q* Could you share which pEC50 value was measured for Nc1nc2c(ncn2COC(CO)CO)c(=O)[nH]1 ?
*A* 6.23

P = Nc1nc(O)c2ncn(CC3(CO)CC3CO)c2n1 (stereo not drawn)
Q = O=c1c2ncn(COCCO)c2nc2[nH]c(-c3ccco3)cn12
*Q* Select one. Lower pEC50: P or Q Pick one and reply with its label.
*A* Q
(Q: 4.79, P: 6.89)

a = O=c1c2ncn(CC3(CO)CC3CO)c2nc2[nH]c(-c3ccco3)cn12 (cis isomer)
b = O=c1c2ncn(COCCO)c2nc2[nH]c(-c3ccc(Br)s3)cn12
*Q* Select one. Lower pEC50: a or b Pick one and reply with its label.
*A* b

---

# assayInfo: Cytotoxicity against human HEL cells assessed as reduction in cell growth after 3 days
# Type: cell-based
reportedMetric: CC50 at 72 h

*Q* Could you share which CC50 at 72 h value was measured for O=c1[nH]c(=O)n([C@H]2C[C@H](O)[C@@H](CO)O2)cc1/C=C/Br ?
*A* 432 µM

*Q* Could you share which CC50 at 72 h value was measured for O=c1c2ncn(CC3(CO)CC3CO)c2nc2[nH]c(-c3ccco3)cn12 (cis isomer) ?
*A* > 100 µM

*Q* Could you share which CC50 at 72 h value was measured for O=c1c2ncn(CC3(CO)CC3CO)c2nc2[nH]c(-c3cccs3)cn12 (stereo unspecified) ?
*A* > 100 µM

More entries:
*Q* Could you share which CC50 at 72 h value was measured for Nc1nc2c(ncn2COC(CO)CO)c(=O)[nH]1 ?
*A* 221 µM

*Q* Could you share which CC50 at 72 h value was measured for O=c1c2ncn(COCCO)c2nc2[nH]c(-c3ccc(Br)s3)cn12 ?
*A* > 100 µM

*Q* Could you share which CC50 at 72 h value was measured for O=c1c2ncn(CC3(CO)CC3CO)c2nc2[nH]c(-c3ccc(Br)s3)cn12 (stereo unspecified) ?
*A* > 100 µM

*Q* Could you share which CC50 at 72 h value was measured for Nc1nc2c(ncn2COCCO)c(=O)[nH]1 ?
*A* 782 µM

*Q* Could you share which CC50 at 72 h value was measured for O=c1c2ncn(COCCO)c2nc2[nH]c(-c3cccs3)cn12 ?
*A* > 100 µM

*Q* Could you share which CC50 at 72 h value was measured for Nc1nc(O)c2ncn(CC3(CO)CC3CO)c2n1 (stereo unspecified) ?
*A* > 100 µM

*Q* Could you share which CC50 at 72 h value was measured for Nc1ccn(C[C@@H](CO)OCP(=O)(O)O)c(=O)n1 ?
*A* 54 µM

*Q* Could you share which CC50 at 72 h value was measured for O=c1c2ncn(COCCO)c2nc2[nH]c(-c3ccco3)cn12 ?
*A* > 100 µM

---

# assayInfo: Cytotoxicity against human HEL cells assessed as microscopically detectable morphological alterations after 3 days
# Type: cell-based
reportedMetric: MCC at 72 h

Example molecules with recorded MCC at 72 h:
*Q* Could you share which MCC at 72 h value was measured for O=c1c2ncn(CC3(CO)CC3CO)c2nc2[nH]c(-c3ccc(Br)s3)cn12 (centres undefined) ?
*A* > 100 µM

*Q* Could you share which MCC at 72 h value was measured for O=c1c2ncn(COCCO)c2nc2[nH]c(-c3ccco3)cn12 ?
*A* > 100 µM

*Q* Could you share which MCC at 72 h value was measured for O=c1c2ncn(CC3(CO)CC3CO)c2nc2[nH]c(-c3cccs3)cn12 (centres undefined) ?
*A* > 100 µM

*Q* Could you share which MCC at 72 h value was measured for Nc1nc2c(ncn2COC(CO)CO)c(=O)[nH]1 [GANCICLOVIR] ?
*A* > 1580 µM

*Q* Could you share which MCC at 72 h value was measured for O=c1c2ncn(COCCO)c2nc2[nH]c(-c3cccs3)cn12 ?
*A* > 100 µM

*Q* Could you share which MCC at 72 h value was measured for Nc1ccn(C[C@@H](CO)OCP(=O)(O)O)c(=O)n1 [CIDOFOVIR] ?
*A* ≥ 254 µM

*Q* Could you share which MCC at 72 h value was measured for O=c1[nH]c(=O)n([C@H]2C[C@H](O)[C@@H](CO)O2)cc1/C=C/Br [BRIVUDINE] ?
*A* > 1200 µM

*Q* Could you share which MCC at 72 h value was measured for Nc1nc(O)c2ncn(CC3(CO)CC3CO)c2n1 (centres undefined) ?
*A* > 100 µM

More entries:
*Q* Could you share which MCC at 72 h value was measured for O=c1c2ncn(COCCO)c2nc2[nH]c(-c3ccc(Br)s3)cn12 ?
*A* > 100 µM
